# method.notes: qHTS assay for small molecule agonists of the antioxidant response element (ARE) signaling pathway measured by Nrf2-dependant transcriptional activity - cell viability counter screen (AID 720653); further: on the % scale 0 is the no-effect control and ±100 the full control effect
# condition.set: ARE-bla HepG2 viability, CellTiter-Glo ATP luminescence, 16 h; stronger effect = lower value
Records with an inconclusive call do not appear.
Exercise: state measured max response for each of the molecules provided.
Answers are plain numbers, in %.

molecule | readout.value
Cc1ccc2nc(-c3ccc(N)cc3)sc2c1S(=O)(=O)O | -24.5
Cc1ccc2cccnc2c1 | 0.459
COc1cccc(N)c1 | 10.6
O=C(O)/C=C/C(=O)O | 17.2
COC(=O)CC#N | -4.65
O=C1NC(=O)c2cc([N+](=O)[O-])ccc21 | -3.07
Cc1cc(C(=O)O)ccc1[N+](=O)[O-] | -1.45
Nc1ccccc1S(=O)(=O)O | -0.944

For every item in the list below, what is its measured max response?
1. BrC/C=C/CBr
2. CCCCC(CC)C(=O)O (stereo unspecified)
3. CCCC=O
4. FC(F)(F)c1ccccc1Cl
5. C=CCCCC

1: -9.49; 2: -5.11; 3: -6.36; 4: -5.26; 5: -4.9

###

# system: Tumor necrosis factor (Homo sapiens)
# method.notes: qHTS assay to identify small molecules that stimulate Tumor Necrosis Factor-alpha (TNF-alpha) secretion (AID 651757); further: 0% is about no effect
# condition.set: Human cells, HTRF 665/615 ratio; series mostly up to 92.2 µM
Records with an inconclusive call do not appear. The source made the active and inactive calls. Calls follow the shape of the dose curve; as a rule, active = well fitted curve in the direction sought with a large enough effect in the signal ratio; inconclusive = small, poorly fitted or top-dose-only effect, or a change in a side signal; inactive = no such curve, though single readings can be large or run the other way; the % refers to the signal ratio.
Entry note: the call must match one of 1.0 for active, 0.0 for inactive

Query: recorded result category for CCc1ccccc1O in this test
0.0

Query: recorded result category for Nc1cc([N+](=O)[O-])ccc1C(=O)O in this test
0.0

Query: recorded result category for CCNS(=O)(=O)c1ccc(C)cc1 in this test
0.0

###

Exercise: state measured caspase-3 activation for each of the molecules provided.
# method.notes: Cellular Toxicity (caspase-3) Jurkat (AID 655);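 further: cells exposed to compound for 16 h at 37 °C before reading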
# condition.set: Jurkat caspase-3 activation, luminescence; at 92.2 µM (top of the series), DMSO = 0%, tamoxifen = 100%
Inconclusive results are not listed.
One number for each entry, in %.

For every item in the list below, what is its measured caspase-3 activation?
1. CC(C)CCOC(=O)/C=C/c1ccccc1
2. CCN(Cc1ccccc1)c1ccccc1

1: 0.824; 2: 1.93

For every item in the list below, what is its measured caspase-3 activation?
1. O=C(O)c1ccc(Cl)c(Cl)c1
2. CCC(C)(C)C

[-1.55, -0.787]

For every item in the list below, what is its measured caspase-3 activation?
1. CC(C)=CCl
2. O=Cc1ccc(C(=O)O)cc1
3. C=C(C)C1CC=C(C)C(OC(C)=O)C1 (stereo not given)
4. NC(=S)NNC(N)=S
5. Cc1ccc([N+](=O)[O-])c(N)c1

1: -0.417; 2: 0.522; 3: 0.979; 4: 0.7; 5: 1.25

For every item in the list below, what is its measured caspase-3 activation?
1. Cc1ccc2ncccc2c1
2. Cc1ccc(C)c([N+](=O)[O-])c1
3. CSc1ccc(C=O)cc1
4. C=Cc1ccccc1C=C
5. CCC(C)(C)C(=O)O

1: 0.555; 2: 1.04; 3: 1.05; 4: -0.124; 5: -0.0519

For every item in the list below, what is its measured caspase-3 activation?
1. Cc1ccccc1C(N)=O
2. O=[N+]([O-])c1ccc(CCO)cc1
3. CCCCC(C=O)CC (stereo not given)
4. Cc1ccc2cccnc2c1

1. 1.13
2. -1.91
3. -0.967
4. -0.667

For every item in the list below, what is its measured caspase-3 activation?
1. CCNc1cc(O)ccc1C
2. Nc1ccccc1[N+](=O)[O-]
3. Cc1ccc(Cl)cc1
4. CC(=C/C=C/C(C)=C/C=C/C=C(C)/C=C/C=C(C)/C=C/C(=O)O)/C=C/C(=O)O

1. 0.87
2. -0.598
3. 1.47
4. -0.472

For every item in the list below, what is its measured caspase-3 activation?
1. C1CCC2OC2C1 (stereo not given)
2. CCOC(C)(C)C
3. Cc1cccc2cccnc12
4. CC/C=C/C#N
5. Clc1ccc(Cl)c(Cl)c1Cl
6. ClCCl

1: 0.319; 2: -1.17; 3: -0.137; 4: -0.0351; 5: -1.65; 6: 1.06

For every item in the list below, what is its measured caspase-3 activation?
1. O=C(O)c1cccc([N+](=O)[O-])c1
2. C=C(C)C(=O)OCCCCCCCCCC
3. Cc1cc(C(=O)O)ccc1[N+](=O)[O-]
4. CCC=O
5. COC(=O)CC#N
6. CCOc1ccc(NC(C)=O)cc1N
7. CC/C=C1/OC(=O)c2ccccc21
8. FB(F)F

1. 0.351
2. -0.118
3. -1.06
4. 3.47
5. 1.32
6. 0.0364
7. -0.618
8. 1.14

###

Exercise: state measured max response for each of the compounds provided.
# method.notes: qHTS assay for small molecule antagonists of peroxisome proliferator-activated receptor delta signaling (AID 588535);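 further: cells co-treated with a PPAR-delta agonist as stimulator during compound exposure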
# condition.set: HEK293T PPARd-UAS-bla, beta-lactamase FRET ratio, 18 h; 460 nm channel
Results filed as inconclusive are left out.
Give bare numbers, in %.

compound | max response / %
CCCCC(=O)N(C)C | -15
Nc1ccc(F)cc1F | -4.23
COc1ccc(N=[N+]([O-])c2ccc(OC)cc2)cc1 | 8.26
C=CC(=O)OCCCC | -13.6
CC(C)=C1CCC(C)CC1=O (centres undefined) | -8.22

For every item in the list below, what is its measured max response?
1. Cc1ccc(Cl)cc1N
2. CCN(CC)c1cccc(O)c1
3. CCCCN(CCO)CCCC
4. CCCOCC(C)O (centres undefined)

[-18.2, 12.9, 4.41, -0.284]

###

# method.notes: qHTS assay for small molecule antagonists of retinoid X receptor alpha signaling (AID 588546);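 further: cells stimulated with 9-cis-retinoic acid as agonist; on the % scale 0 is the no-effect control and ±100 the full control effect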
# condition.set: HEK293T RXRa-UAS-bla, beta-lactamase ratio, antagonist mode; measured here: W530 green channel, cytotoxicity proxy
# Text: NIH Chemical Genomics Center [NCGC] U.S. Environmental Protection Agency [EPA] National Institutes of Environmental Health Sciences [NIEHS] National Toxicology Program [NTP] NCGC Assay Overview The Retinoid X receptor (RXR), a nuclear hormone receptor is expressed in liver, spleen, placenta, epidermis, central nervous system. […]
Results filed as inconclusive are left out.
reported.metric: max response (%)
Numbers only, in %.

compound | reported.metric | readout.value
O=[N+]([O-])c1cc(C(F)(F)F)ccc1Cl | max response | -1.67

For every item in the list below, what is its measured max response?
1. CC(C)(c1cc(Br)c(OCC(Br)CBr)c(Br)c1)c1cc(Br)c(OCC(Br)CBr)c(Br)c1 (stereo not given)
2. Nc1cccc(O)c1

-15.9
6.84

For every item in the list below, what is its measured max response?
1. OC/C(Br)=C(\Br)CO
2. CCC(C)O (stereo not given)
3. CC(C)c1ccccc1
4. CCOC(=O)OCC

1. -2.68
2. 2.22
3. 7.79
4. 10.9

###

Exercise: state measured caspase-3 activation for each of the compounds provided.
# method.notes: Cellular Toxicity (caspase-3) Hek293 (AID 664);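 further: cells exposed to compound for 16 h at 37 °C before readout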
# condition.set: HEK293 caspase-3 activation, DMSO = 0%, 100 µM tamoxifen = 100%; at 92.2 µM (top of the series)
Records with an inconclusive call do not appear. The source made the active and inactive calls. Calls come from the whole dose curve; as a rule, active = well fitted activation curve with a large enough effect; inconclusive = small, poorly fitted or top-dose-only effect; inactive = flat fitted curve, though single readings scatter.

compound | caspase-3 activation
CC(C=O)Cc1ccc(C(C)(C)C)cc1 (configuration not stated) | -0.395% (inactive)
Cc1ccc(Cl)cc1N | -3.36% (inactive)

For every item in the list below, what is its measured caspase-3 activation?
1. c1ccsc1
2. BrC(Br)C(Br)Br

1. -0.842% (inactive)
2. -0.575% (inactive)

###

# method.notes: Cellular Toxicity (caspase-3) SK-N-SH (AID 661);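 further: cells exposed to compound for 16 hours; 0% = DMSO basal and 100% = 10 µM staurosporine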
# condition.set: SK-N-SH caspase-3 activation, qHTS, DMSO as zero, staurosporine as full; series mostly up to 91.7 µM
The source made the active and inactive calls. The call rests on the fitted dose curve; in most records, active means well fitted activation curve with a large enough effect; inconclusive means small, poorly fitted or top-dose-only effect; inactive means flat fitted curve, though single readings scatter.
reported.metric: outcome

As a guide, the following entries are already answered.
compound | readout.value
CCc1ccccc1O | inactive
CCCCCCCCCCCCC1CO1 (configuration not stated) | inactive
N#CC1(O)CCCCC1 | inactive
O=C(O)c1cccc(Cl)c1Cl | inactive
Cc1ccc(C(C)(C)C)cc1 | inactive
O=C1OC(=O)c2c(Br)c(Br)c(Br)c(Br)c21 | inactive
Cc1ccc(Cl)cc1 | inactive
CC(C)(C)OC=O | inactive

For every item in the list below, what is its measured outcome?
1. Nc1ccc([N+](=O)[O-])c(N)c1
2. CCCC(Cl)CCCC(Cl)CCC(Cl)CCC(Cl)CCC(Cl)CCCC(Cl)CCC (configuration not stated)

["inactive", "inactive"]
